Values were extracted from patent US20190185479A1.

biological target: hPDE5A (Homo sapiens, UniProt O76074)
pKi: −log10 of the molar value.
ENDPOINT: pKi

Cc1nc(N)c2nnn(C3CCCCC3)c2n1 [Example 4]	< 5.01
CC1CCCCC1n1nnc2c(N)ncnc21 (single isomer, unassigned) [Example 191]	< 4.01

Short answer please: pKi, hPDE5A (Homo sapiens, UniProt O76074), entry Nc1ncnc2c1nnn2C1CCCCC1 [Example 3]
< 4.01

----------
target: Human PDE7B (hPDE7B) (Homo sapiens, UniProt Q9NP56); construct: made in house; host or cells: COS-7 cells; assay: Measurement of PDE7 inhibitory activity (Experimental Example 1; residual cAMP, LANCE Ultra cAMP TR-FRET); format: biochemical; settings: compound at 1 μmol/L
Sequence (Q9NP56 whole entry): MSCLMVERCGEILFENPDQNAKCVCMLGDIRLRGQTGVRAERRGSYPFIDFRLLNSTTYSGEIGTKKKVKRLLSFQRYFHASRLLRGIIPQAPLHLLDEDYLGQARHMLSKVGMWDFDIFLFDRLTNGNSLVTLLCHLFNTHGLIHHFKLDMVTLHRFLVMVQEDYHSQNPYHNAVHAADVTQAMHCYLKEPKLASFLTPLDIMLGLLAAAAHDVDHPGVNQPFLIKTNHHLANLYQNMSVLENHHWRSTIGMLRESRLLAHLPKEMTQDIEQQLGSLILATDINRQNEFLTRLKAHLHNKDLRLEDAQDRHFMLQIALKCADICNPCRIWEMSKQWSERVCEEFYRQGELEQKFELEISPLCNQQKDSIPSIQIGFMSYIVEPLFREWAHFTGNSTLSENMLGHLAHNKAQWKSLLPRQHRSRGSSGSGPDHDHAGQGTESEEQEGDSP
ENDPOINT: inhibition at 1 µM (%)
Give the value in % but do not write % after it.

Use the examples below as a reference point.
C=C(C)[C@H]1CC[C@H](C)C(n2nnc3c(N)ncnc32)C1 (stereo in doubt)	35
CC1(C)CCCC(c2nnc3c(N)nccn23)C1 (single isomer, unassigned)	44
Nc1ncnc2c1nnn2C1CCCC(C(F)F)C1 (single isomer, unassigned)	20
CC1CCC(C(F)(F)F)CC1c1nnc2c(N)nccn12 (single isomer, unassigned)	3
Nc1nccn2c(C3CCCC(C(F)(F)F)C3)nnc12 (single isomer, unassigned)	20
Nc1ncnc2c1nnn2C1CCCC(C(F)(F)F)C1 (single isomer, unassigned)	27
CC1CCC(F)(F)CC1c1nnc2c(N)nccn12 (single isomer, unassigned)	28

Switching to the query record.
Short answer please: inhibition at 1 µM, Human PDE7B (hPDE7B) (Homo sapiens, UniProt Q9NP56), entry CC1(C)CC(c2nnc3c(N)nccn23)CC(F)(F)C1 (single isomer, unassigned)
33
